These data points were gathered from PubChem BioAssay (NCI).

A collection of compounds and their measured GI50
Tested on: A549 NSCLC
protocol-description: NCI tumour cell line growth inhibition, 48 h
parameter-measured: GI50

{"compound": "O=C(CNC(=O)c1cccc2ccccc12)Nc1ccccc1Oc1cccc(O)c1", "parameter-measured": "GI50", "reported": "9.64 µM"}
{"compound": "N#C/C(=C\\c1cn(-c2ccccc2)c2ccccc12)C(=O)O", "parameter-measured": "GI50", "reported": "42.9 µM"}
{"compound": "COC(=O)Nc1ccc2ccc3c(NC(=O)OC)ccc4ccc1c2c43 (tested in a mixture with another compound)", "parameter-measured": "GI50", "reported": "7.78 µM"}
{"compound": "COc1cc(C)cc2c1OC(c1ccccc1)CC2=O (stereo not drawn)", "parameter-measured": "GI50", "reported": "> 100 µM"}
{"compound": "COc1cc2c(cc1OCCCCCOc1cc(-c3ccc(F)cc3)nc(C)n1)N=C[C@@H]1CCCN1C2=O", "parameter-measured": "GI50", "reported": "> 41.2 µM"}
{"compound": "O=[N+]([O-])c1cccc(-c2nc3sccn3c2-c2ccnc(NCCCNS(=O)(=O)c3ccc(F)cc3)n2)c1", "parameter-measured": "GI50", "reported": "2.73 µM"}
{"compound": "Cc1c(C(=O)/C=C/c2ccc(O)cc2)nnn1-c1ccnc2c(C(F)(F)F)cccc12", "parameter-measured": "GI50", "reported": "8.55 µM"}
{"compound": "CCCCCCN1C(=O)/C(=c2\\sc3n(c2=O)C2C(NN=3)N(CC)C(=O)N2CC)c2ccccc21 (stereo not drawn)", "parameter-measured": "GI50", "reported": "1.47 µM"}
{"compound": "O=C(Nc1ccccc1Cl)c1cnc2ccc(C3CCNCC3)cn12", "parameter-measured": "GI50", "reported": "11.5 µM"}
{"compound": "C=C1C(=O)O[C@H]2[C@H]1CC/C(COC(=O)NCCc1ccc(OC)cc1)=C\\CC[C@@]1(C)O[C@@H]21", "parameter-measured": "GI50", "reported": "13.2 µM"}
{"compound": "CC(C)(C)Cn1c(N)nc2ccc(-c3[nH]c(C(C)(C)C)nc3-c3ccc(F)cc3)nc21", "parameter-measured": "GI50", "reported": "8.38 µM"}
{"compound": "O=C1N=C2c3c(sc4c3CCCC4)N=CN2C1N=Nc1ccc(Cl)cc1 (stereo not drawn)", "parameter-measured": "GI50", "reported": "42.2 µM"}
{"compound": "O=C(O)C(/C=C/c1ccco1)=N\\Nc1nc(-c2ccc(Cl)cc2)cs1", "parameter-measured": "GI50", "reported": "16 µM"}
